- Tested on: mushroom tyrosinase (Sigma T3824)
- assay: Mushroom Tyrosinase Inhibition Assay
- Assay type: biochemical
- test.parameters: 10 μM compound, 300 μM L-Tyrosine, 84 units/mL enzyme, pH 6.5, 15 min room temperature
Reported Mushroom Tyrosinase (% remaining enzyme activity) % TYR Activity values are given for each entry in this list.
Report as a plain number; the unit % is understood.

In the examples that follow, each entry is paired with its recorded Mushroom Tyrosinase (% remaining enzyme activity) % TYR Activity.
* Oc1ccc(O)cc1 [Hydroquinone, hydroquinone, reference compound] | 100
* Cc1cc(O)cc(O)c1C1CCCC1 | 71

Prompt line: Suppose we examine the molecule CC(C)c1ccc(O)cc1O [Compound 4IPR, 4-isopropylresorcinol, reference compound] ; what Mushroom Tyrosinase (% remaining enzyme activity) % TYR Activity value has been reported?
Response line: 1

Prompt line: Another molecule to check: Cc1cc(O)cc(O)c1C(C)C
Response line: 108
